Field: pIC50. Provide a value for each of the compounds that follow.
# Measured on: Rac1 (Homo sapiens (Human), UniProt P63000)
# Assay notes: Rac Activation AlphaScreen Assay (RacI AS)
# Type: biochemical
# Condition details: read-out: Rac1 IC50
Numbers only, as −log10 of the molar value.

Here's what some known entries look like.
> print(dat)
                                   compound  measured.property  quantitative.result
1  Cc1ccc(-c2nnc3ccc(-c4cccc(NC(=O)c5ccc(F)c(F)c5)c4)nn23)o1 [Compound 106]              pIC50                 6.57
2  Cc1ccc(-c2nnc3ccc(-c4cccc(NC(=O)c5cccc(Cl)c5)c4)nn23)o1 [Compound 102]              pIC50                 6.28

Just so you know, measured pIC50 for O=C(Nc1cccc(-c2ccc3nnc(-c4cncs4)n3n2)c1)c1ccc(F)cc1 [Compound 201] came out at 6.77

---

# Assay notes: Mouse Liver Microsome (MLM) Stability Assay
# Format: in vitro ADME
# Condition details: mouse liver microsomes, NADPH, 37° C.; read-out: MLM Clearance (μL/min/mg protein)
Measured property: microsomal CLint (µL/min/mg)
Give bare numbers, in µL/min/mg.

Here's what some known entries look like.
> print(dat)
                                   compound  measured.property  result.units  quantitative.result
1  Cc1ccc(-c2nnc3ccc(-c4cccc(NC(=O)c5cccc(Cl)c5)c4)nn23)o1   microsomal CLint     µL/min/mg                 19.7
2  Cc1ccc(-c2nnc3ccc(-c4cccc(NC(=O)c5ccc(F)c(Cl)c5)c4)nn23)o1   microsomal CLint     µL/min/mg                  4.5

Consider the additional compound presented here.
Just so you know, measured microsomal CLint for `O=C(Nc1cccc(-c2ccc3nnc(-c4cncs4)n3n2)c1)c1ccc(F)cc1` came out at 15.5

---

# Measured on: Rac1 (Homo sapiens (Human))
# Assay notes: Rac Activation AlphaScreen Assay (RacI AS)
# Assay type: biochemical
# Condition details: read-out: Rac1 IC50
Measured property: pIC50
Numbers only, as −log10 of the molar value.

> print(dat)
                                   compound  measured.property  quantitative.result
1  Cc1ccc(-c2nnc3ccc(-c4cccc(NC(=O)c5ccc(F)c(Cl)c5)c4)nn23)o1              pIC50                 6.37
2  COc1cccc(C(=O)Nc2cccc(-c3ccc4nnc(-c5cncs5)n4n3)c2)c1              pIC50                 6.62
3  Cc1ccc(-c2nnc3ccc(-c4cccc(NC(=O)c5cccc(F)c5)c4)nn23)o1              pIC50                 6.82

Consider the additional compound presented here.
Just so you know, measured pIC50 for `Cc1ccc(-c2nnc3ccc(-c4cccc(NC(=O)c5ccc(F)cc5)c4)nn23)s1` came out at 6.16

---

# Assay notes: Mouse Liver Microsome (MLM) Stability Assay
# Type: in vitro ADME
# Condition details: mouse, mouse liver microsomes; read-out: MLM clearance
Measured property: microsomal CLint

Just so you know, measured microsomal CLint for `CCc1cc(C(=O)Nc2cccc(-c3ccc4nnc(-c5ccc(C)o5)n4n3)c2)ccc1F` came out at < 50 µL/min/mg

---

# Measured on: Rac1 (Homo sapiens (Human), UniProt P63000)
# Assay notes: Rac Activation AlphaScreen Assay (RacI AS)
# Format: biochemical
# Condition details: Table 2, Formula I-B; read-out: IC50
pIC50: −log10 of the molar value.
Measured property: pIC50

> print(dat)
                                   compound  result
1  O=C(Nc1cccc(-c2ccc3nnc(-c4cncs4)n3n2)c1)c1ccc(F)cc1 [Compound 201]  ≥ 6.00

Just so you know, measured pIC50 for COc1cccc(C(=O)Nc2cccc(-c3ccc4nnc(-c5cncs5)n4n3)c2)c1 [Compound 200] came out at ≥ 6.00

---

Field: pIC50. Provide a value for each of the compounds that follow.
# Measured on: Rac1 (Homo sapiens (Human), UniProt P63000)
# Assay notes: Rac Activation AlphaScreen Assay (RacI AS)
# Format: biochemical
# Condition details: read-out: Rac1 IC50
Give bare numbers, as −log10 of the molar value.

> print(dat)
                                   compound                               measured.on  measured.property  quantitative.result
1  COc1cccc(C(=O)Nc2cccc(-c3ccc4nnc(-c5ccc(C)o5)n4n3)c2)c1  Rac1 (Homo sapiens (Human), UniProt P63000)              pIC50                 7.10

Just so you know, measured pIC50 for Cc1ccc(-c2nnc3ccc(-c4cccc(NC(=O)c5cccc(Cl)c5)c4)nn23)o1 [Compound 119] came out at 5.82

---

# Measured on: Rac1 (Homo sapiens (Human), UniProt P63000)
# Assay notes: Rac Activation AlphaScreen Assay (RacI AS)
# Assay type: biochemical
# Condition details: wild type Rac1, AlphaLisa assay; read-out: IC50 inhibitory concentration versus wild type Rac1
pIC50: −log10 of the molar value.
Measured property: pIC50

Just so you know, measured pIC50 for `CCn1c2ccccc2c2cc(Nc3ccnc(NCCCN4CCOCC4)n3)ccc21` came out at ~5.00
